test system: CAKI-1 renal; experiment: NCI tumour cell line growth inhibition, 48 h
Endpoint: TGI

Previously resolved entries follow.
{"columns": ["Compound", "TGI"],
 "data": [
  ["CCn1c2ccccc2c2cc(N=Nc3ccc(C#N)cc3)ccc21", "> 100 µM"],
  ["Cc1ccc(O)c(C2=CC3=NNC(=O)C3C(c3cccc(Br)c3)C2)c1 (stereo unspecified)", "> 75 µM"],
  ["COC(=O)C(Cc1ccc(OC)cc1O)NC(=O)OC(C)(C)C (stereo unspecified)", "> 100 µM"]
]}

# TGI lookup, item COc1cc(/C=C2\C(=O)Nc3ccccc32)cc(OC)c1O
25.3 µM

// query: Cn1cnc([N+](=O)[O-])c1Sc1nc2ccccc2s1
6.9 µM

Also, Cc1ccccc1NC(=O)/C(=N/NC(=O)CC#N)C1C(=O)N(c2ccccc2)N=C1N (stereo unspecified) please.
> 100 µM
